System: Trypanosoma cruzi
Experiment: Trypanocidal activity against Trypanosoma cruzi Tulahuen trypomastigotes infected in BALB/C mouse bone marrow derived macrophages assessed as induction of cell lysis at trypomastigote stage after 24 hrs

| entry_smiles | IC50 [µM] |
| --- | --- |
| Nc1c(O)cccc1C(=O)C[C@H](N)C(=O)O | 1200 |

All values here come from ChEMBL document CHEMBL4052792.
